Known composite z-score of a selection of compounds
# System: Neuregulin-1 EGF-like domain
# experiment-notes: binders of neuregulin-1 EGF-like domain, primary screen, biochemical, small-molecule microarray, 635 nm fluorescence (AID 1081);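 also: binding of the protein to compounds printed on small-molecule microarray slides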
# condition-summary: small-molecule microarray binding, higher = more signal
Would you mind answering with just the numeric figure?

Example compounds with recorded composite z-score:
compound=CC(C)(C)N1C(=O)[C@H]2[C@H]3[C@H](O)[C@H](O)CC(=NOCc4ccccc4)[C@H]3CC[C@H]2C1=O measured=-0.559
compound=CON=C[C@@H](NS(=O)(=O)c1ccc(C)cc1)[C@H](C)C=CCC(=O)OC measured=0.0812
compound=CC(C)CON=C1C[C@@H](O)[C@@H](O)[C@@H]2[C@@H]3C(=O)N(C4CCCCC4)C(=O)[C@@H]3CC[C@H]12 measured=0.743
compound=CC(C)=CCCC(C)=CCON=C1C[C@@H](O)[C@@H](O)[C@@H]2[C@@H]3C(=O)N(Cc4ccccc4)C(=O)[C@@H]3CC[C@H]12 measured=1.06
compound="CCOC(=O)[C@H](CC(C)C)NC(=O)CCC1CC(OC(=O)NCc2ccc3c(c2)OCO3)CC2(CCCC(COC(=O)NCc3cccc(C(F)(F)F)c3)O2)O1 (stereo partly specified)" measured=0.445

// switching to the query compound
[Q] # composite z-score lookup, item C=CC[C@@H]1C=C[C@H](ON=C(C)CCN2CCc3nc(-c4ccccc4)c(-c4ccccc4)cc3C2)[C@@H](CO)O1
[A] 0.942

* * *

# target-system: Torsin-1A (Homo sapiens)
# experiment-notes: torsin A binders from cell lysate, primary screen, small-molecule microarray, wild-type, 635/667 nm (AID 1149)
# condition-summary: COS7 hTOR1A-WT lysate, 635 nm fluorescence, higher = more signal
# thresholds on composite z-score define classes: lo = under 0.09, mid = from 0.09 up to 0.7, hi = 0.7 and over

compound=COc1cccc([C@H]2Oc3ccc(OC)cc3C(=NOC[C@@H](O)[C@H]3O[C@@H]4OC(C)(C)O[C@@H]4[C@H]3O)[C@@H]2O)c1 assigned_category=mid
compound=O=C1[C@H]2[C@H]3[C@H](O)[C@H](O)CC(=NOC[C@@H](O)COCc4ccco4)[C@H]3CC[C@H]2C(=O)N1c1ccc(F)cc1F assigned_category=hi
compound=CC(CCN1CCCCc2nc(C)c(C)cc21)=NOC[C@@H](O)COCc1ccco1 assigned_category=hi
compound=O=C1[C@H]2[C@H]3[C@H](O)[C@H](O)CC(=NOC[C@@H](O)COCc4ccco4)[C@@H]3CC[C@H]2C(=O)N1C[C@@H]1CCCO1 assigned_category=hi
compound=COc1cccc([C@@H]2Oc3ccc(OC)cc3C(=O)[C@H]2O)c1 assigned_category=mid

Moving on to another compound below.
[Q] Which composite z-score category applies to O=C1OCCC=C1C(O)CCc1ccccc1 (stereo unspecified) here?
[A] lo

* * *

Known composite z-score of a selection of compounds
# System: Chordin-like protein 2 (CHRDL2)
# experiment-notes: CHRDL2 small-molecule binders, primary screen, biochemical, small-molecule microarray, 635 nm fluorescence (AID 1126);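 also: printed compound slides probed with Chrdl2 protein at 4 µg/mL for 1 h at 4 C; score merges 667 nm emission intensity with signal to noise over three replicate slides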
# condition-summary: small-molecule microarray binding, fluorescence 635 nm; higher = more signal
Would you mind answering with just the numeric figure?

[Q] # composite z-score lookup, item CC(=O)OC[C@H]1O[C@H](CC=NO[C@H](C)c2cn([C@H](CO)Cc3ccccc3)nn2)C=C[C@@H]1OC(C)=O
[A] 0.41

[Q] # composite z-score lookup, item COC(=O)CC=C[C@@H](C)[C@@H](C=NO[C@@H](C)c1cc(-c2c(C)cc(C)cc2C)no1)NS(=O)(=O)c1ccc(C)cc1
[A] -0.674

[Q] # composite z-score lookup, item COC(=O)[C@H](C)NC(=O)CCC1CC(OC(=O)NCCc2ccc(F)cc2)CC2(CCCC(COC(=O)NCc3cccc(C(F)(F)F)c3)O2)O1 (some centres not stated)
[A] 0.208

[Q] # composite z-score lookup, item CCOC(=O)[C@H](Cc1ccccc1)NC(=O)CCC1CC(OC(=O)NCc2ccc3c(c2)OCO3)CC2(CCCC(COC(=O)NCCc3ccccc3OC)O2)O1 (some centres not stated)
[A] 1.06

[Q] # composite z-score lookup, item CO[C@@H]1C=CCC(=O)N[C@@H](C)C(=O)OC[C@@H](OC)[C@H](C)CCCC(=O)OC[C@H]1C
[A] 1.53

[Q] # composite z-score lookup, item CCOC(=O)NN=C1C[C@@H](O)[C@@H](O)[C@@H]2[C@@H]3C(=O)N(c4cccc(Oc5ccccc5)c4)C(=O)[C@@H]3CC[C@@H]12
[A] -0.0646

[Q] # composite z-score lookup, item CC(C)=NOC[C@@H](C)[C@H](OCc1ccccc1)C(C)C
[A] 0.0109
